biological target: UniProt:Q9F663; test: Inhibition of nitrocefin cleavage by purified enzyme (Ki); settings: nitrocefin reporter substrate; 10 min preincubation; read-out: Ki KPC-2, NCF
Sequence (Q9F663 25-293, looked up, species assumed): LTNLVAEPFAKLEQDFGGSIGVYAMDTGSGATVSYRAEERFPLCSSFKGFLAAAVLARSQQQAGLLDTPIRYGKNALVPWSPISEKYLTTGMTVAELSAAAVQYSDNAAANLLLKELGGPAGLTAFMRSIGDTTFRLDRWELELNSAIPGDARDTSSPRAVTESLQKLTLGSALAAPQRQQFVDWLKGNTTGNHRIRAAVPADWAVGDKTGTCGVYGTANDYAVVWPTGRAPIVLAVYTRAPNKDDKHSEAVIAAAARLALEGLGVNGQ
For each entry below, report its Ki value.

Endpoint output: Ki of O=C(CSc1nncs1)N[C@H]1CC=C[C@@H]2CC(=O)OB1O2 . Value?
0.1 to 1 µM

Endpoint output: Ki of Nc1nnc(SCC(=O)N[C@H]2CC=C[C@@H]3CC(=O)OB2O3)s1 . Value?
0.1 to 1 µM

Endpoint output: Ki of CSCC(=O)N[C@H]1CC=C[C@@H]2CC(=O)OB1O2 . Value?
0.1 to 1 µM

Endpoint output: Ki of C[C@]1(Cn2ccnn2)[C@H](C(=O)O)N2C(=O)C[C@H]2S1(=O)=O [Tazobactam, reference compound] . Value?
> 1 µM

Endpoint output: Ki of N#CCSCC(=O)N[C@H]1CC=C[C@@H]2CC(=O)OB1O2 . Value?
0.1 to 1 µM
